- System: HCV genotype 1b (Con1) replicon in HUH-7 cells
- experiment_notes: HCV replicon luciferase reporter assay, genotype 1b
- Type: cell-based
- assay_setup: Hepatitis C virus, Huh-7, 72 h, HCV genotype 1b replicon luciferase, 3 days incubation, read-out: LE_1b (EC50, range)
Parameter: EC50. Scope: all listed entries.

[
  {
    "compound": "CC[C@@H]1C[C@H](C)CC/C=C\\[C@@H]2C[C@@]2(C(=O)NS(=O)(=O)C2(C)CC2)NC(=O)[C@@H]2C[C@@H](Oc3ncc(C(=O)O)c4cc(OC)ccc34)CN2C(=O)[C@H]1NC(=O)OC(C)(C)C(F)(F)F",
    "target_desc": "HCV genotype 1b (Con1) replicon in HUH-7 cells",
    "EC50": "35 to 620 nM"
  },
  {
    "compound": "C[C@H]1CC/C=C\\[C@@H]2C[C@@]2(C(=O)NS(=O)(=O)C2(C)CC2)NC(=O)[C@@H]2C[C@@H](Oc3nccc4c5c(ccc34)OCCO5)CN2C(=O)[C@@H](NC(=O)OC(C)(C)C)[C@H](C)C1",
    "target_desc": "HCV genotype 1b (Con1) replicon in HUH-7 cells",
    "EC50": "4.82 to 103 nM"
  },
  {
    "compound": "COc1ccc2c(O[C@@H]3C[C@H]4C(=O)N[C@]5(C(=O)NS(=O)(=O)C6(C)CC6)C[C@H]5/C=C\\CC[C@@H](C)C[C@@H](C)[C@H](N)C(=O)N4C3)ncc(OC)c2c1",
    "target_desc": "HCV genotype 1b (Con1) replicon in HUH-7 cells",
    "EC50": "< 5.46 nM"
  },
  {
    "compound": "CC[C@@H]1C[C@H](C)CC/C=C\\[C@@H]2C[C@@]2(C(=O)NS(=O)(=O)C2CC2)NC(=O)[C@@H]2C[C@@H](Oc3nccc4c5c(ccc34)N(C)CCO5)CN2C(=O)[C@H]1NC(=O)NC(C)(C)C",
    "target_desc": "HCV genotype 1b (Con1) replicon in HUH-7 cells",
    "EC50": "< 5.46 nM"
  },
  {
    "compound": "C[C@H]1CC/C=C\\[C@@H]2C[C@@]2(C(=O)NS(=O)(=O)C2(CF)CC2)NC(=O)[C@@H]2C[C@@H](Oc3nc4c(c5ccccc35)OCCC4)CN2C(=O)[C@@H](NC(=O)OC(C)(C)C(F)(F)F)[C@H](C)C1",
    "target_desc": "HCV genotype 1b (Con1) replicon in HUH-7 cells",
    "EC50": "4.82 to 103 nM"
  },
  {
    "compound": "COc1ccc2c(O[C@@H]3C[C@H]4C(=O)N[C@]5(C(=O)NS(=O)(=O)C6(F)CC6)C[C@H]5/C=C\\CC[C@@H](C)C[C@@H](C)[C@H](NC(=O)OC5C[C@@H]6C[C@@H]6C5)C(=O)N4C3)nccc2c1 (stereo partly shown)",
    "target_desc": "HCV genotype 1b (Con1) replicon in HUH-7 cells",
    "EC50": "< 5.46 nM"
  },
  {
    "compound": "COc1ccc2c(O[C@@H]3C[C@H]4C(=O)N[C@]5(C(=O)NS(=O)(=O)C6CC6)C[C@H]5/C=C\\CC[C@H](C)C[C@@H](C)[C@H](NC(=O)OC5C[C@@H]6C[C@@H]6C5)C(=O)N4C3)nc(-c3ccc(OC(C)C)cn3)cc2c1 (stereo partly shown)",
    "target_desc": "HCV genotype 1b (Con1) replicon in HUH-7 cells",
    "EC50": "< 5.46 nM"
  },
  {
    "compound": "COc1cnc(O[C@@H]2C[C@H]3C(=O)N[C@]4(C(=O)NS(=O)(=O)C5(CO)CC5)C[C@H]4/C=C\\CC[C@H](C)C[C@@H](C)[C@H](N)C(=O)N3C2)c2ccccc12",
    "target_desc": "HCV genotype 1b (Con1) replicon in HUH-7 cells",
    "EC50": "> 87.4 nM"
  },
  {
    "compound": "COc1cc2cc(-c3ccc(OC(C)C)cc3)nc(O[C@@H]3C[C@H]4C(=O)N[C@]5(C(=O)NS(=O)(=O)C6(C)CC6)C[C@H]5/C=C\\CC[C@@H](C)C[C@@H](C)[C@H](NC(=O)O[C@@H]5C[C@@H]6C[C@@H]6C5)C(=O)N4C3)c2cc1F",
    "target_desc": "HCV genotype 1b (Con1) replicon in HUH-7 cells",
    "EC50": "< 5.46 nM"
  },
  {
    "compound": "C[C@@H]1CC/C=C\\[C@@H]2C[C@@]2(C(=O)NS(=O)(=O)C2CC2)NC(=O)[C@@H]2C[C@@H](Oc3ncc(OC(F)F)c4c(Cl)cccc34)CN2C(=O)[C@@H](NC(=O)CC(C)(C)C(F)(F)F)[C@H](C)C1",
    "target_desc": "HCV genotype 1b (Con1) replicon in HUH-7 cells",
    "EC50": "< 5.46 nM"
  },
  {
    "compound": "CCOc1cc2ccnc(O[C@@H]3C[C@H]4C(=O)N[C@]5(C(=O)NS(=O)(=O)C6(CF)CC6)C[C@H]5/C=C\\CC[C@@H](C)C[C@@H](C)[C@H](NC(=O)OC(C)(C)C(C)(F)F)C(=O)N4C3)c2cc1F",
    "target_desc": "HCV genotype 1b (Con1) replicon in HUH-7 cells",
    "EC50": "0.51 to 1 nM"
  },
  {
    "compound": "CCOc1nnc(O[C@@H]2C[C@H]3C(=O)N[C@]4(C(=O)NS(=O)(=O)C5(C)CC5)C[C@H]4/C=C\\CC[C@@H](C)C[C@@H](CC)[C@H](NC(=O)OC(C)(C)C(C)(F)F)C(=O)N3C2)c2ccccc12",
    "target_desc": "HCV genotype 1b (Con1) replicon in HUH-7 cells",
    "EC50": "< 5.46 nM"
  },
  {
    "compound": "COc1ccc2ncc(O[C@@H]3C[C@H]4C(=O)N[C@]5(C(=O)NS(=O)(=O)C6(CF)CC6)C[C@H]5/C=C\\CC[C@@H](C)C[C@@H](C)[C@H](NCC(F)F)C(=O)N4C3)nc2c1",
    "target_desc": "HCV genotype 1b (Con1) replicon in HUH-7 cells",
    "EC50": "4.82 to 103 nM"
  },
  {
    "compound": "CC[C@@H]1C[C@H](C)CC/C=C\\[C@@H]2C[C@@]2(C(=O)NS(=O)(=O)C2(C)CC2)NC(=O)[C@@H]2C[C@@H](Oc3ncc(N4CCOCC4)c4ccccc34)CN2C(=O)[C@H]1NC(=O)OC(C)(C)C(F)(F)F",
    "target_desc": "HCV genotype 1b (Con1) replicon in HUH-7 cells",
    "EC50": "0.51 to 1 nM"
  },
  {
    "compound": "[2H]C([2H])([2H])Oc1cc2ccnc(O[C@@H]3C[C@H]4C(=O)N[C@]5(C(=O)NS(=O)(=O)C6(C)CC6)C[C@H]5/C=C\\CC[C@@H](C)C[C@@H](CC)[C@H](NC(=O)OC(C([2H])([2H])[2H])(C([2H])([2H])[2H])C(F)(F)F)C(=O)N4C3)c2cc1F",
    "target_desc": "HCV genotype 1b (Con1) replicon in HUH-7 cells",
    "EC50": "1.01 to 5 nM"
  },
  {
    "compound": "[2H]C([2H])([2H])C(OC(=O)N[C@@H]1C(=O)N2C[C@H](Oc3nccc4c5c(ccc34)N(C)CCO5)C[C@H]2C(=O)N[C@]2(C(=O)NS(=O)(=O)C3CC3)C[C@H]2/C=C\\CC[C@H](C)C[C@H]1C)(C([2H])([2H])[2H])C([2H])([2H])[2H]",
    "target_desc": "HCV genotype 1b (Con1) replicon in HUH-7 cells",
    "EC50": "< 5.46 nM"
  }
]

---

Quick reference: pEC50 of the listed items.
- Test system: HCV genotype 1b (Con1) replicon in HUH-7 cells
- experiment_notes: HCV replicon luciferase reporter assay, genotype 1b
- Type: cell-based
- assay_setup: Hepatitis C virus, Huh-7, 72 h, HCV genotype 1b replicon luciferase, 3 days incubation, read-out: LE_1b (EC50, range)
pEC50: −log10 of the molar value.

[
  {
    "smiles_string": "C[C@@H]1CC/C=C\\[C@@H]2C[C@@]2(C(=O)NS(=O)(=O)C2(C)CC2)NC(=O)[C@@H]2C[C@@H](Oc3nccc4c(N5CCOCC5)cccc34)CN2C(=O)[C@@H](NC(=O)OC(C)(C)C)[C@H](C)C1",
    "pEC50": "> 8.26"
  },
  {
    "smiles_string": "COc1ccc2c(O[C@@H]3C[C@H]4C(=O)N[C@]5(C(=O)NS(=O)(=O)C6CC6)C[C@H]5/C=C\\CC[C@@H](C)C[C@@H](C)[C@H](NC(=O)O[C@H](C)C(F)(F)F)C(=O)N4C3)nc(-c3ccc(OC(C)C)cn3)cc2c1",
    "pEC50": "> 8.26"
  },
  {
    "smiles_string": "CC[C@@H]1C[C@H](C)CC/C=C\\[C@@H]2C[C@@]2(C(=O)NS(=O)(=O)C2(CF)CC2)NC(=O)[C@@H]2C[C@@H](Oc3nc4c(c5cc(OC)ccc35)CCCO4)CN2C(=O)[C@H]1NC(=O)OC(C)(C)C(F)(F)F",
    "pEC50": "7.46 to 8.30"
  },
  {
    "smiles_string": "CC[C@@H]1C[C@H](C)CC/C=C\\[C@@H]2C[C@@]2(C(=O)NS(=O)(=O)C2(C)CC2)NC(=O)[C@@H]2C[C@@H](Oc3cc4cc(OC)ccc4nc3OC)CN2C(=O)[C@H]1NC(=O)OC(C)(C)C",
    "pEC50": "9.30 to 10.00"
  }
]

Values compiled from patent US9499550B2.
